Values compiled from PubChem BioAssay (NCATS).

Target: Tumor susceptibility gene 101 protein (Homo sapiens) (UniProt Q99816)
Sequence (Q99816 whole entry, looked up): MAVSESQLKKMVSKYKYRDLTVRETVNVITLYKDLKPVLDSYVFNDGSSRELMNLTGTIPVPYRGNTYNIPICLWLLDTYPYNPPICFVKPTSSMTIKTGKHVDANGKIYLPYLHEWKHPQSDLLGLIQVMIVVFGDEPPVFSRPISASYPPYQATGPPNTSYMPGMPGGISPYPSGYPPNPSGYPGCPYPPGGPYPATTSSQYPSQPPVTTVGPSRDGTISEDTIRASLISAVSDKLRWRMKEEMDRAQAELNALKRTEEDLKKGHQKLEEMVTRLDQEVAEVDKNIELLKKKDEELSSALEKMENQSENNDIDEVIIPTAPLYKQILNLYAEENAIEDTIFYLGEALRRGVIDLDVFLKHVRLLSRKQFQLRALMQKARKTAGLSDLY
Assay: qHTS Assay for Iinhibitors of HIV-1 Budding by Blocking the Interaction of PTAP/TSG101: Hit Validation (AID 651600); note: nearly all actives have a fitted effect of over 70% in size; note: potency is the fitted concentration of half-maximal effect
Conditions: PTAP peptide/TSG101 UEV interaction, biochemical assay; series mostly up to 57.5 µM
Inconclusive results are not listed. Activity calls are given as the source filed them. Calls come from the whole dose curve; as a rule, active = well fitted inhibition curve with a large enough effect; inconclusive = small, poorly fitted or top-dose-only effect; inactive = no such curve, though single readings can be large or run the other way.
recorded-metric: Potency

Here are 5 compounds together with their reported answers.
>>> recorded_measurement("C/C(=N/NC(=O)c1ccncc1)c1cc2ccc(O)cc2oc1=O")
"14.6 µM (active)"
>>> recorded_measurement("O=C1CCCC2=C1Sc1ccc(Cl)cc1N2")
"inactive"
>>> recorded_measurement("COc1ccc(/C=c2\\s/c(=C/C(=O)c3ccc(C)cc3)[nH]c2=O)c(OC)c1")
"inactive"
>>> recorded_measurement("CN1CCc2c(sc3c2C(=O)NC(c2ccccn2)N3)C1 (stereo unspecified)")
"18.3 µM (active)"
>>> recorded_measurement("Cc1cccc2cc(/C=C3\\N=C(c4ccccc4)OC3=O)c(N3CCOCC3)nc12")
"inactive"

Reading of Potency for `Oc1c(C=Nc2ccccc2)sc2ccccc12` with Tumor susceptibility gene 101 protein (Homo sapiens) (UniProt Q99816): inactive

Reading of Potency for `CNc1c2cccc(C)c2nc2c(C(=O)NCCN(C)C)cccc12` with Tumor susceptibility gene 101 protein (Homo sapiens) (UniProt Q99816): 16.3 µM (active)

Reading of Potency for `COc1ccc(OC)c(/C=C(\C#N)c2nc(-c3ccc(F)cc3)cs2)c1` with Tumor susceptibility gene 101 protein (Homo sapiens) (UniProt Q99816): inactive

Reading of Potency for `COc1ccc(-c2onc3ccc(Br)cc23)cc1` with Tumor susceptibility gene 101 protein (Homo sapiens) (UniProt Q99816): inactive

Reading of Potency for COc1ccc(N(C(=O)c2snc(C(N)=O)c2N)C(C(=O)NC2CCCC2)c2ccc3ncccc3c2)cc1 (stereo unspecified) with Tumor susceptibility gene 101 protein (Homo sapiens) (UniProt Q99816): inactive

Reading of Potency for Brc1ccc(C2=CC(c3ccco3)n3ncnc3N2)cc1 (stereo unspecified) with Tumor susceptibility gene 101 protein (Homo sapiens) (UniProt Q99816): inactive
